# ASSAY_TARGET: recombinant human FLAP protein (Homo sapiens (Human))
# Sequence (P20292 whole entry): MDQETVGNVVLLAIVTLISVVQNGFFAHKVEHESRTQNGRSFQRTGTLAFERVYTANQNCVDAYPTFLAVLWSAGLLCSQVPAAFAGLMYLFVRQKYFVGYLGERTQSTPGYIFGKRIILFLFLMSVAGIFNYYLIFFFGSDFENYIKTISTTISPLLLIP
# ASSAY_REMARKS: FLAP binding assay (Scintillation Proximity Assay, displacement of [125I]L-691,831)
# ASSAY_CONDITIONS: read-out: FLAP SPA IC50
# Method: Assessment of Biological Properties 1. Binding Assay: Compounds are assessed for the ability to bind to FLAP in a binding assay that measures compound-specific displacement of an iodinated (^125I) FLAP inhibitor via a Scintillation Proximity Assay format (adapted from S. Charleson et al., Mol. Pharmacol., 1992, 41, 873-879). […] (final concentrations: beads, 200 μg/well; protein, 5 μg/well; […] The plates are shaken for 2 h before reading on a Microbeta plate reader.
OBSERVABLE: IC50 (µM)

These solved cases illustrate the format of a correct answer.
MOLECULE	IC50 [µM]
CC(C)(CO)n1cc(-c2nc(C3(c4ccc(-c5cnc(N)nc5)nc4)CCC3)no2)cn1 [Example 30]	0.033
CS(=O)(=O)C1CCN(c2ccc(-c3nc(C4(c5ccc(-c6cnc(N)nc6)nc5)CCC4)no3)cn2)C1 (stereo not shown) [Example 52]	0.0026

a. Nc1ncc(-c2ccc(C3(c4noc(-c5ccc(N6CCCC6)nc5)n4)CCC3)cn2)cn1 [Example 112]
b. Nc1ncc(-c2ccc(C3(c4noc(-c5ccnc(O)c5)n4)CCC3)cn2)cn1 [Example 91]
Kindly identify the item with the lower IC50 figure among these two: a and b Select an item and report its label. a
(a: 0.0033 µM, b: 0.024 µM)
